# measured target: UniProtKB P37231
# Sequence (P37231 whole entry, species assumed): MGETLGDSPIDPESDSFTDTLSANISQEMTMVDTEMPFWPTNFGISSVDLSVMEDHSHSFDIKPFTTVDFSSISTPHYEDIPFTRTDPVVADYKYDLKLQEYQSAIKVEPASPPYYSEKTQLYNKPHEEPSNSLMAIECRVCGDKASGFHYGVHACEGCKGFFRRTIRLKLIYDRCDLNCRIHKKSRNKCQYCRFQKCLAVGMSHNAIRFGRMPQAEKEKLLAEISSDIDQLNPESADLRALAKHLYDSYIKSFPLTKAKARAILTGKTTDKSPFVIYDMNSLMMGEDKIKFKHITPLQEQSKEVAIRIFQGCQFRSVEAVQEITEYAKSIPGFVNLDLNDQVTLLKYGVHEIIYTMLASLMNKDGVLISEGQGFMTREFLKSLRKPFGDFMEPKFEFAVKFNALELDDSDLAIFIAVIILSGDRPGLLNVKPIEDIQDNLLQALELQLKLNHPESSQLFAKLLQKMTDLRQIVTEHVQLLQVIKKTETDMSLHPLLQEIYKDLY
# assay overview: selective experiment of PPARγ agonism
# settings: selectivity experiment; read-out: EC K (EC50) of PPARγ agonism
pEC50: −log10 of the molar value.
measured endpoint: pEC50

- Cc1ccccc1-c1cccc(CNc2ccc(OCC(=O)O)c(F)c2)c1: 4.08

====

# assay overview: Evaluation of hepatotoxicity: serum ALT, AST and TBIL after 4 weeks of dosing; further: test concentration or dose not given here
# Type: in vivo
# settings: serum, once a day for consecutive 4 weeks; x ± SD, n = 6
Entries annotated with measured ALT (IU/L)
measured endpoint: ALT (IU/L)

- O=C(O)COc1ccc(NCc2cccc(-c3ccccc3Cl)c2)cc1 [Compound I-24]: 52.68 ± 5.7 IU/L
- O=C(O)COc1ccc(NCc2cccc(-c3ccccc3C(F)(F)F)c2)cc1F [Compound I-8]: 46.63 ± 6.2 IU/L
- Cc1ccccc1-c1cccc(CNc2ccc(OCC(=O)O)c(F)c2)c1 [Compound I-3]: 51.23 ± 5.6 IU/L
- O=C(O)COc1ccc(NCc2cccc(-c3ccccc3Cl)c2)cc1F [Compound I-2]: 47 ± 5.3 IU/L
- O=C(O)COc1ccc(NCc2cccc(-c3ccccc3C(F)(F)F)c2)cc1 [Compound I-28]: 49.36 ± 7.8 IU/L
- COc1ccc(-c2cccc(CNc3ccc(OCC(=O)O)c(F)c3)c2)c(C)c1 [Compound I-19]: 50.33 ± 4.6 IU/L
- CCOc1ccc(-c2cccc(CNc3ccc(OCC(=O)O)c(F)c3)c2)c(C)c1 [Compound I-13]: 52.37 ± 5.3 IU/L
- Cc1ccccc1-c1cccc(CNc2ccc(OCC(=O)O)cc2)c1 [Compound I-25]: 51.78 ± 4.5 IU/L
- Cc1cc(OCCCS(C)(=O)=O)cc(C)c1-c1cccc(COc2ccc3c(c2)OC[C@H]3CC(=O)O)c1 [TAK-875, reference compound]: 72.83 ± 8.4 IU/L

====

# assay overview: Evaluation of hepatotoxicity: serum ALT, AST and TBIL after 4 weeks of dosing; further: test concentration or dose not given here
# Assay type: in vivo
# settings: serum, once a day for consecutive 4 weeks; x ± SD, n = 6
measured endpoint: TBIL (IU/L)

• O=C(O)COc1ccc(NCc2cccc(-c3ccccc3C(F)(F)F)c2)cc1 [Compound I-28] = 2.57
• CCOc1ccc(-c2cccc(CNc3ccc(OCC(=O)O)c(F)c3)c2)c(C)c1 [Compound I-13] = 2.48
• Cc1ccccc1-c1cccc(CNc2ccc(OCC(=O)O)cc2)c1 [Compound I-25] = 2.69
• O=C(O)COc1ccc(NCc2cccc(-c3ccccc3C(F)(F)F)c2)cc1F [Compound I-8] = 2.52
• COc1ccc(-c2cccc(CNc3ccc(OCC(=O)O)c(F)c3)c2)c(C)c1 [Compound I-19] = 2.68
• O=C(O)COc1ccc(NCc2cccc(-c3ccccc3Cl)c2)cc1 [Compound I-24] = 2.56
• Cc1cc(OCCCS(C)(=O)=O)cc(C)c1-c1cccc(COc2ccc3c(c2)OC[C@H]3CC(=O)O)c1 [TAK-875, reference compound] = 2.98
• Cc1ccccc1-c1cccc(CNc2ccc(OCC(=O)O)c(F)c2)c1 [Compound I-3] = 2.55
• O=C(O)COc1ccc(NCc2cccc(-c3ccccc3Cl)c2)cc1F [Compound I-2] = 2.61

====

Entries annotated with measured melting point
measured endpoint: melting point

* COCOc1cc(C)c(-c2cccc(CNc3ccc(OCC(=O)O)c(F)c3)c2)c(C)c1 | 136 to 138 °C
* Cc1cc(OC(C)C)ccc1-c1cccc(CNc2ccc(OCC(=O)O)cc2)c1 | 132 to 135 °C
* O=C(O)COc1ccc(NCc2cccc(-c3ccccc3OC(F)(F)F)c2)cc1F | 111 to 113 °C
* CCOCOc1cc(C)c(-c2cccc(CNc3ccc(OCC(=O)O)cc3)c2)c(C)c1 | 128 to 131 °C
